Test system: SW-620 colon
Assay: NCI-60 one-dose screen, 48 h (100 = growth as untreated, 0 = no growth, -100 = all killed)
Settings: 10 µM unless noted
Method: Growth inhibition of the SW-620 human tumor cell line is measured as a screen for anti-cancer activity. Cells are grown in 96 well plates and exposed to the test compound for 48 hours. Compounds are tested at a single concentration, which is 10^-5 M for most compounds. The reported endpoint is percent growth (GI% or GIPRCNT), where numbers from 0 - 100% represent growth inhibition, and numbers from -100% - 0 represent cell death. For example, a value of 40 represents 60% growth inhibition. […]
About 83,000 compounds went through this panel and 20% of them were active in at least one assay; those are over-represented in the sample as a whole. Calls of active or inactive are those of the source. Rule for the calls: active = growth percent below 10; inactive = the rest.
Value kind: growth

Using the record for `Clc1cccc(NCOOC2(OOCNc3cccc(Cl)c3)CCCCC2)c1` , report its growth. 98.8% (inactive)

Using the record for `COc1cc2c(=O)n(C3CCCCCCC3)c3c4cc[nH]c4ncc3c2cc1OC` , report its growth. 56.8% (inactive)

Using the record for O=C(O)C(O)C(O)C1[O][Sb]([c]2ccc([N+](=O)[O-])cc2)[O]C1CO (stereo not given) , report its growth. 103% (inactive)

Using the record for `CCOC(=O)c1c(C)n(Cc2ccccc2)c2cc(CN(C)C)c(O)cc12` , report its growth. 63% (inactive)

Using the record for CC(C)(C)C(=O)OCOP(=O)(OCOC(=O)C(C)(C)C)C1CCCN(O)C1=O (stereo not given) , report its growth. 22.9% (inactive)

====

Task for the reader: assign each of the following molecules its reported growth.
System: RXF 393 renal
Experiment: NCI-60 one-dose screen, 48 h (100 = growth as untreated, 0 = no growth, -100 = all killed)
Conditions: 10 µM unless noted
Experimental: Cells are grown in 96 well plates and exposed to the test compound for 48 hours. Compounds are tested at a single concentration, which is 10^-5 M for most compounds. The reported endpoint is percent growth (GI% or GIPRCNT), where numbers from 0 - 100% represent growth inhibition, and numbers from -100% - 0 represent cell death. For example, a value of 40 represents 60% growth inhibition. A value of 0 means no net growth occurred over the course of the experiment. […]
The panel holds about 83,000 compounds, 20% with a hit somewhere; the sample as a whole holds those more often. The source made the active and inactive calls. The calls were made as follows: active = growth percent below 10; inactive = the rest.

Using the record for CC(C)=CC1C(C(=O)OCc2cccc(Oc3ccccc3)c2)C1(C)C (stereo not given) , report its growth. 121% (inactive)

Using the record for `COC(=O)CCC1=C(C)c2cc3[n-]c(cc4nc(cc5[n-]c(cc1n2)c(CCC(=O)OC)c5C)C=C4C)cc3C.[Cd+2]` , report its growth. 65.7% (inactive)

Using the record for N#Cc1c(Br)n(C2OC(CO)C(O)C2O)c2ncnc(N)c12 (stereo not given) , report its growth. 13.8% (inactive)

Using the record for CCCCCSC1C2C(=O)C(Br)=CC13CCNc1c(O)c4c5c(c13)=[N+]2CCC=5C=N4 (stereo not given) , report its growth. -28.5% (active)

Using the record for `O=C1N[C@@H]2[C@@H](O)[C@@H](O)[C@H](O)C[C@H]2c2cc3c(c(O)c21)OCO3` , report its growth. -37.3% (active)

====

System: HCT-116 colon
Assay: NCI-60 one-dose screen, 48 h (100 = growth as untreated, 0 = no growth, -100 = all killed)
Conditions: 10 µM unless noted
Procedure: Growth inhibition of the HCT-116 human tumor cell line is measured as a screen for anti-cancer activity. Cells are grown in 96 well plates and exposed to the test compound for 48 hours. Compounds are tested at a single concentration, which is 10^-5 M for most compounds. The reported endpoint is percent growth (GI% or GIPRCNT), where numbers from 0 - 100% represent growth inhibition, and numbers from -100% - 0 represent cell death. For example, a value of 40 represents 60% growth inhibition. […]
This is part of a sample that, as a whole, favours compounds with a hit. Of some 83,000 tested, about 20% had one in any assay.
Task for the reader: assign each of the following compounds its reported growth.
Give the number; % is assumed, so skip it.

Using the record for `Cc1cc(C)c(CBr)c(C)c1` , report its growth. 110

Using the record for `Cn1cc(C2=C(c3cn(C4CCN(Cc5ccccn5)CC4)c4ccccc34)C(=O)NC2=O)c2ccccc21` , report its growth. 38.2

Using the record for `Cn1cc(-c2csc(-c3cn(CCN4CCOCC4)c4ccc(F)cc34)n2)c2cccnc21` , report its growth. 36.9

Using the record for CN1C(=O)C23CC4(C56CC78SSC(CO)(C(=O)N7C5Nc5ccccc56)N(C)C8=O)c5ccccc5NC4N2C(=O)C1(CO)SS3 (centres undefined) , report its growth. -78.5

Using the record for `CC1(C)[C@H](O)[C@H](F)C[C@@]2(C)Oc3ccc(C(=O)Nc4ccc5c(c4)NC(=O)C54CCN(CCCCC#N)CC4)cc3C[C@H]12` , report its growth. 18.5

Using the record for COC(=O)C1CCC(NC(=O)c2csc([C@@H](C[C@H](C(C)C)N(C)C(=O)[C@@H](NC(=O)[C@H]3CCCCN3C)C(C)C)OC(C)=O)n2)CC1 (some centres undefined) , report its growth. 5.04

Using the record for `Cn1cc(-c2csc(-c3cn(CCCCN4CCCCC4)c4ccc(F)cc34)n2)c2cccnc21` , report its growth. 94.9

Using the record for `CC(=O)O[C@@H]1CC[C@]2(C)[C@H]3CC[C@]4(C)C(=O)CC[C@H]4[C@@H]3C[C@@H]3SC(N)=N[C@@]32C1` , report its growth. 32.7

Using the record for `CCCc1cc(O)c2c3c(c(=O)oc2c1)CN(C)CC3` , report its growth. 20.8

Using the record for `O=C1NC(=O)C(=Cc2cccn2CCCCCn2c3ccccc3c(=O)c3ccccc32)C(=O)N1` , report its growth. 82.2

Using the record for `[Cl][Hg][n]1c(-c2ccco2)nc2ccccc21` , report its growth. 99.7

Using the record for O=C1Nc2ccccc2C2c3cccn3-c3ccccc3CN12 (centres undefined) , report its growth. 41.7

Using the record for `CCn1c2ccccc2c2cc(C(=O)c3ccc(C)c4ccccc34)ccc21` , report its growth. 12.1

Using the record for `COc1ccc(NC([Se])=NC23CC4CC(CC(C4)C2)C3)cc1` , report its growth. 1.65

Using the record for `COc1ccc(/C=C\c2cc(OC)c(OC)c(OC)c2)c(NS(=O)(=O)c2ccc(C)cc2)c1O` , report its growth. 8.54

Using the record for COc1cc(NC(C)CCCNC2CN3CCC2CC3)c2ncccc2c1 (centres undefined) , report its growth. 66.4

Using the record for `CC(C)[C@]12O[C@H]1[C@@H]1O[C@]13[C@]1(O[C@H]1C[C@H]1c4c(C(=O)c5ccccc5)oc(OC(=O)c5ccccc5)c4CC[C@@]13C)[C@@H]2O` , report its growth. 5.12

Using the record for CN(C)CC(C(=O)Cc1ccccc1)c1ccccc1 (centres undefined) , report its growth. 2.48

Using the record for COc1cc(/C=N/C2=C(C#N)C(c3ccco3)c3c(c4cc(C)ccc4oc3=O)O2)cc(OC)c1OC (centres undefined) , report its growth. 84.9
